# Test system: alternative splicing of a specific gene (GFP/RFP reporter)
# ASSAY TEXT: Compound screen with GFP/RFP alternative splicing reporter
# Type: cell-based
# MEASUREMENT CONDITIONS: cell count after compound at final conc.; Ctrl number of cells 4303-5627
# Number of cells listing for each entry below
Just the number, please.

Observe how each entry below is paired with its result.
Briefly, Number of cells measured for CC[C@@]1(O)C[C@H](O[C@H]2C[C@H](N(C)C)[C@H](O[C@H]3C[C@H](O)[C@H](O[C@H]4CCC(=O)[C@H](C)O4)[C@H](C)O3)[C@H](C)O2)c2c(cc3c(c2O)C(=O)c2c(O)cccc2C3=O)[C@H]1C(=O)OC : 10

Briefly, Number of cells measured for CO[C@@]12[C@H](COC(N)=O)C3=C(C(=O)C(C)=C(N)C3=O)N1C[C@@H]1N[C@@H]12 : 319

Briefly, Number of cells measured for C[N+](C)(C)CCOC(=O)CCC(=O)OCC[N+](C)(C)C (racemic) : 2727

Briefly, Number of cells measured for C[C@]12CC[C@@H]3c4ccc(O)cc4C[C@@H](CCCCCCCCC[S+]([O-])CCCC(F)(F)C(F)(F)F)[C@H]3[C@@H]1CC[C@@H]2O (mixture of isomers) : 2156

Briefly, Number of cells measured for CC[C@@]1(O)C(=O)OCc2c1cc1n(c2=O)Cc2cc3cc(O)ccc3nc2-1 [10-hydroxycamptothecin] : 541

Continuing:
Briefly, Number of cells measured for CO[C@H]1C[C@@H]2CC[C@@H](C)[C@@](O)(O2)C(=O)C(=O)N2CCCC[C@H]2C(=O)O[C@H]([C@H](C)C[C@@H]2CC[C@@H](O)[C@H](OC)C2)CC(=O)[C@H](C)/C=C(\C)[C@@H](O)[C@@H](OC)C(=O)[C@H](C)C[C@H](C)/C=C/C=C/C=C/1C : 2046

Briefly, Number of cells measured for N.N.O=C([O-])C1(C(=O)[O-])CCC1.[Pt+2] : 1373
